Numbers sourced from ChEMBL document CHEMBL1157539.

Test system: Plasmodium falciparum
Test Summary: GSK_TCMDC: Inhibition of Plasmodium falciparum 3D7 in whole red blood cells, using parasite LDH activity as an index of growth. Test compounds present at 2uM
Format: functional
Entries and their Inhibition values follow.
Endpoint: Inhibition (%)

>>> data_value("CCOc1ccc(-c2nonc2NC(=O)c2cccc(Cl)c2)cc1OCC")
100
>>> data_value("O=C(Nc1cccc(N2CCC(NCCCc3ccncc3)CC2)c1)c1cccc(C(F)(F)F)c1")
96
>>> data_value("COc1ccc2nccc([C@@H](O)CN3CCC(NC(=O)C(c4cc5ccccc5o4)N4CCN(c5ccccc5)CC4)CC3)c2c1 (stereo partly specified)")
99
>>> data_value("CCOC(=O)c1cncc(/C=C/c2cc(C)cnc2N)c1")
86
>>> data_value("O=[N+]([O-])c1ccc2nccnc2c1")
97
>>> data_value("COc1cc2nc(N(C)C)nc(Nc3ccc4c(cnn4Cc4ccccc4)c3)c2cc1OC")
100
>>> data_value("CN(C)C1CCN(Cc2ccc(N3CCN(Cc4cccc5[nH]ccc45)CC3)nc2)CC1")
80
>>> data_value("Br.CC=CCON1C(=N)NC(=N)NC1(C)C")
94
>>> data_value("Fc1cc(Cl)ccc1Nc1ccnc2cc(I)ccc12")
90
>>> data_value("Cc1nc(O)c2c(ccc3ccc(CNc4ccc(C(=O)N[C@@H](CCC(=O)O)C(=O)O)c(F)c4)cc32)n1")
96
>>> data_value("O=C(NC1CCC(N2CCC(O)(c3ccc(F)cc3)CC2)CC1)c1cc2ccccc2[nH]1 (stereo unspecified)")
94
>>> data_value("CCN1CCC(N2CCC(C(=O)Nc3cccc(-c4cccc(Cl)c4)c3)CC2)CC1")
91
>>> data_value("Oc1ccc2nc(NCCCc3ccccc3)nc(NCCCc3ccccc3)c2c1")
100
>>> data_value("CCCC(=O)c1cnc2c(OCCCc3c[nH]cn3)cccc2c1Nc1c(C)cccc1C")
98
>>> data_value("CC(C)c1ccc(CN2CCC(CNC(=O)c3cc(-c4ccccc4F)cs3)C2)cc1.O=C(O)C(F)(F)F (stereo unspecified)")
100
>>> data_value("COc1ccc2c(=NN=Cc3ccccc3F)cc(C)[nH]c2c1")
90
>>> data_value("COc1ccc2oc(=O)c(C#N)c(O)c2c1")
99
>>> data_value("COc1ccc(NC(=O)[C@H](Cc2ccccc2)Nc2cc(C)nc(NCCOc3ccccc3)n2)cc1.O=C(O)C(F)(F)F")
98
>>> data_value("COc1ccc(Cc2cnc(N)nc2N)cc1OCCCOc1ccccc1")
91
>>> data_value("CCOC(=O)c1cn(CC)c2cc(OCc3ccccc3)ccc2c1=O")
97
>>> data_value("SC(=Nc1ccc(Cl)c(Cl)c1)NN=Cc1ccccn1")
98

----------
Each entry below carries its reported Inhibition.
System: Plasmodium falciparum
Test Summary: GSK_TCMDC: Inhibition of Plasmodium falciparum 3D7 in whole red blood cells, using parasite LDH activity as an index of growth. Test compounds present at 2uM
Format: functional
Endpoint: Inhibition

>>> data_value("CCN(CC)CCCC(C)Nc1ccnc2cc(C#N)ccc12 (centres undefined)")
"100%"
>>> data_value("Cc1ccc(F)cc1-c1cc(N2CCCN(C(=O)c3ccc(Br)o3)CC2)ncn1")
"94%"
>>> data_value("CCOC(=O)CN1Cc2cc(NCc3ccc4ccc5nc(C)[nH]c(=O)c5c4c3)ccc2C1=O")
"84%"
>>> data_value("O=C(O)c1ccc(-c2cnc3ccc(NC4CCC(O)CC4)nn23)cc1 (centres undefined)")
"98%"
>>> data_value("CCCCC(CC)C(=O)C(NC(=O)[C@H](CSC(c1ccccc1)(c1ccccc1)c1ccccc1)NC(=O)OC(C)(C)C)C(=O)OC (some centres undefined)")
"88%"
>>> data_value("CC(C)=CC1C(C(=O)n2c(=N)[nH]c3ccccc32)C1(C)C (centres undefined)")
"99%"
>>> data_value("Cl.O=C(Nc1ccc(C(=O)OCC2CCCN3CCCCC23)cc1)c1ccc(Cl)c(Cl)c1 (centres undefined)")
"99%"
>>> data_value("COc1cc(NC(=O)c2sc(-c3ccc(Cl)cc3)cc2NC(=O)CN2CC[C@@H](O)C2)ccc1OCCN1CCCC1")
"90%"
>>> data_value("CCC(C)CN1C(=O)C(c2ccccc2)(c2ccccc2)N=C1N.O=CO (centres undefined)")
"98%"
